Assayed target: human adrenergic-α2A receptor (Homo sapiens, UniProt P08913)
Construct: expressed in transfected cells; membrane preparation
Sequence (P08913 whole entry): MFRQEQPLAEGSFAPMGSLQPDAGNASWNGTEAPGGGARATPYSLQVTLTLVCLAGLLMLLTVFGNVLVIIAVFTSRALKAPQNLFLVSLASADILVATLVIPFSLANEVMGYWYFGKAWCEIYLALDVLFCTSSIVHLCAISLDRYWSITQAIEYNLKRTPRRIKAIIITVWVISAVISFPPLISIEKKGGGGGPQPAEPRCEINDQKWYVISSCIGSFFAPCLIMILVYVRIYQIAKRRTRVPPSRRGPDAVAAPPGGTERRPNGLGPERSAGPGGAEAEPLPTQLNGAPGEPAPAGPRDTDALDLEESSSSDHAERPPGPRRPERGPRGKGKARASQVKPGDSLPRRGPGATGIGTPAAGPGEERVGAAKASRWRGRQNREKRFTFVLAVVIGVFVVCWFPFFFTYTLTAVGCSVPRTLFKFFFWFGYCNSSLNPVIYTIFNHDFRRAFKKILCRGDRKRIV
Experiment description: Radioligand binding experiment for α2A-adrenoceptor ([3H]-raulwolscine competition, CHO cell membranes)
Measurement setup: [3H]raulwolscine 1 nM, membranes of CHO cells transfected with human α2A receptor; read-out: pIC50 α2A (converted)

{"columns": ["Compound", "Quantity unit", "Comparison sign", "IC50"],
 "data": [
  ["NCc1ccc(Cn2cnn(CCNCCOc3ccccc3)c2=O)cc1", "nM", "=", 126],
  ["Cc1cc(CN2CCC(Cn3ncn(-c4ccc(CN5CCOCC5)cc4)c3=O)CC2)oc1C", "nM", ">", 10000],
  ["CN(CCNc1ccc(-n2cnn(CC3CCN(CCOc4ccccc4)CC3)c2=O)cc1)CC1CCCCC1", "nM", "=", 25.1],
  ["CN(CCNc1ccc(-n2cnn(CC3CCN(CCOc4ccccc4)CC3)c2=O)cc1)Cc1ccccc1", "nM", "=", 25.1],
  ["O=c1n(CCNCCOc2ccccc2)cnn1-c1ccc(CN2CCOCC2)cc1", "nM", "=", 316],
  ["O=C1c2ccccc2C(=O)N1CCCn1ncn(CC2CCN(CCOc3ccccc3)CC2)c1=O", "nM", "=", 12.6],
  ["O=c1n(-c2ccc(CN3CCOCC3)cc2)cnn1CCNCCOc1ccccc1 [compound 23]", "nM", "=", 158],
  ["C/C(=C\\c1ccccc1)CN1CCC(n2ncn(-c3ccc(CN4CCOCC4)cc3)c2=O)CC1", "nM", "=", 158],
  ["CC(NCCOc1ccccc1)C(C)n1ncn(-c2ccc(N3CCN(c4ccc(O)cc4)CC3)cc2)c1=O (single isomer, unassigned) [compound 6]", "nM", "=", 7940],
  ["C/C(=C\\c1ccccc1)CN1CCC(CCn2ncn(-c3ccc(NCCN(C)C)cc3)c2=O)CC1", "nM", "=", 6.31],
  ["O=c1n(-c2ccc(NCCN3CCCC3)cc2)cnn1CCNCCOc1ccccc1", "nM", "=", 39.8],
  ["C/C(=C\\c1ccccc1)CN1CCC(n2cnn(Cc3ccc(CN4CCOCC4)cc3)c2=O)CC1", "nM", "=", 631],
  ["O=c1n(CC2CCN(CCOc3ccccc3)CC2)cnn1CCN1CCCCC1", "nM", "=", 39.8],
  ["COc1ccc(N2CCN(c3ccc(-n4cnn(C5CCN(Cc6ccc7c(c6)OCCO7)CC5)c4=O)cc3)CC2)cc1", "nM", ">", 10000],
  ["C/C(=C\\c1ccccc1)CN1CCC(n2cnn(Cc3ccc(CN)cc3)c2=O)CC1", "nM", "=", 126],
  ["O=c1n(-c2ccc(CNCC3CCCO3)cc2)cnn1CCNCCOc1ccccc1 (stereo not shown)", "nM", "=", 50.1]
]}

====

Assayed target: human adrenergic-α2A receptor (Homo sapiens)
Construct: expressed in transfected cells; membrane preparation
Experiment description: Radioligand binding experiment for α2A-adrenoceptor ([3H]-raulwolscine competition, CHO cell membranes)
Measurement setup: [3H]raulwolscine 1 nM, membranes of CHO cells transfected with human α2A receptor; read-out: pIC50 α2A (converted)
Procedure: The interaction of the compounds of Formula (I) with α2C-adrenoceptor receptors was assessed in in vitro radioligand binding experiments. […] When equilibrium of binding is reached, the receptor bound radioactivity is separated from the non-bound radioactivity, and the receptor- or transporter-bound activity is counted. The interaction of the test compounds with the receptor is assessed in competition binding experiments. […]

{"columns": ["Compound", "IC50 [nM]"],
 "data": [
  ["O=c1n(CC2CCN(CCOc3ccccc3)CC2)cnn1CCN1CCN(Cc2ccc3ncccc3c2)CC1 [compound 126]", 200],
  ["C/C(=C\\c1ccccc1)CN1CCC(n2cnn(-c3ccc(NCCN(C)C)cc3)c2=O)CC1 [compound 31]", 50.1],
  ["O=c1n(CCNCCOc2ccccc2)cnn1CCN1CCCCC1 [compound 44]", 126],
  ["O=c1n(CCNCCOc2ccccc2)nnn1-c1ccc(CN2CCOCC2)cc1 [compound 106]", 398]
]}

All figures here come from patent US20100029620A1.
